tgt: Human T-type calcium channel (Cav 3.2) (Homo sapiens)
Construct: Edward Perez-Reyes, University of Virginia, USA; host or cells: HEK293
Sequence (O95180 whole entry): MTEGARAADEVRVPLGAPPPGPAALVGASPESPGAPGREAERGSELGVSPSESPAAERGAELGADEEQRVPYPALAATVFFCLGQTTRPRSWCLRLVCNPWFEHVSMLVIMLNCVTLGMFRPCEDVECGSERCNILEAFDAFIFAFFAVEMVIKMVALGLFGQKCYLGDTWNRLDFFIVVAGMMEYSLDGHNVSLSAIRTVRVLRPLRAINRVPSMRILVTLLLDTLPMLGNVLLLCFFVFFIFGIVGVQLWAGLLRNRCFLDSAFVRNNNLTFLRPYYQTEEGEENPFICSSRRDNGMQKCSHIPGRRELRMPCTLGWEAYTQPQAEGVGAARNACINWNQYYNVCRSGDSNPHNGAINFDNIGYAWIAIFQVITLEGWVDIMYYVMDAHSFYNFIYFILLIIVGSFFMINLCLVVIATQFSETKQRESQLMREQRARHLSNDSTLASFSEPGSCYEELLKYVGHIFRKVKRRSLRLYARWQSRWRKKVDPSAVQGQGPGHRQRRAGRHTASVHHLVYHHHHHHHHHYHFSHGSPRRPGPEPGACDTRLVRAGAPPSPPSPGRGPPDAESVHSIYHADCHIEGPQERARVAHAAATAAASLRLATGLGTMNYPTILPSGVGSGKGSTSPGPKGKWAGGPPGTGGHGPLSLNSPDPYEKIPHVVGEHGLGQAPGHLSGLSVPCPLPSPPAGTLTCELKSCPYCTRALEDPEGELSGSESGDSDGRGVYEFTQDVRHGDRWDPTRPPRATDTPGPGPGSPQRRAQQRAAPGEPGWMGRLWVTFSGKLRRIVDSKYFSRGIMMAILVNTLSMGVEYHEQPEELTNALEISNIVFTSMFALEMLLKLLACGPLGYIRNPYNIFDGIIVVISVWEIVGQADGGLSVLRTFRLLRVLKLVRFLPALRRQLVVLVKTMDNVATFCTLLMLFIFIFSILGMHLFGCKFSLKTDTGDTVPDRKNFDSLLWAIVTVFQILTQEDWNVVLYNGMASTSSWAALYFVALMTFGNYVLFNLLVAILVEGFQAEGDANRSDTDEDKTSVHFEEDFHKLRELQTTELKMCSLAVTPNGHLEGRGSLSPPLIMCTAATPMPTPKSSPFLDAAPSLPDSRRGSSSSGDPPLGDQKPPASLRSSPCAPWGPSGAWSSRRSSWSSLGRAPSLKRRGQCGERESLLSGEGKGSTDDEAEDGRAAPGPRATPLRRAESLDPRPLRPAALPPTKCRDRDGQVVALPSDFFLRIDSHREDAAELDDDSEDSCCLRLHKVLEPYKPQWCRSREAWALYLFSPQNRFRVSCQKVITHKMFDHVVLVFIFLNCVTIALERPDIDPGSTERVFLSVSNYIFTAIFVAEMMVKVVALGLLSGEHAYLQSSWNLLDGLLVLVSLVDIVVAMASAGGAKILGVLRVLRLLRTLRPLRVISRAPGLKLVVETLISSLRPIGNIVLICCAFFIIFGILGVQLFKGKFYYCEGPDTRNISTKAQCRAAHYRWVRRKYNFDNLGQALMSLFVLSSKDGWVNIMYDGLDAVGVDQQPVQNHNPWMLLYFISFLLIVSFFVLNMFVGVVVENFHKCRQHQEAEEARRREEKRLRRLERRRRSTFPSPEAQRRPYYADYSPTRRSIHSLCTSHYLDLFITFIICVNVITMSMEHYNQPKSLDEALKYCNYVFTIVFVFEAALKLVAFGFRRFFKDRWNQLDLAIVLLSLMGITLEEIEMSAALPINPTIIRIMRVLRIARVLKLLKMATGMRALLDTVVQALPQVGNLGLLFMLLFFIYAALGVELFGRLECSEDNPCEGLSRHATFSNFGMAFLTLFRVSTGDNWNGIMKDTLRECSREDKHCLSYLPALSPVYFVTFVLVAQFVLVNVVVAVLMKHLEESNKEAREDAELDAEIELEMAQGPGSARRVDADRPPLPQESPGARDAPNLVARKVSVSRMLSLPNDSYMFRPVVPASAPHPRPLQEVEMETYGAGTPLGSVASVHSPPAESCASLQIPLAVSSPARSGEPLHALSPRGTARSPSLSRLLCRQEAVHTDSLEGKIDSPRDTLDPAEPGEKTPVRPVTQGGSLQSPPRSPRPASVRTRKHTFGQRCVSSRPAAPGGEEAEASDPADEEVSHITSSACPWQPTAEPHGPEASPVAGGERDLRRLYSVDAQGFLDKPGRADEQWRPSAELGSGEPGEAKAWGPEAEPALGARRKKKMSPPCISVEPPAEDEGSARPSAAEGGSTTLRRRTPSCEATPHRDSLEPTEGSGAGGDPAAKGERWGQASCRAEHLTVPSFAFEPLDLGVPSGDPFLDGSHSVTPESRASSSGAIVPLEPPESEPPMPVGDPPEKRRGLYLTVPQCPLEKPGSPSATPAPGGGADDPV
experiment_description: Calcium Influx Inhibition Assay
Type: cell-based
experimental_setup: Human T-type calcium channel (Cav 3.2) expressing HEK293 cells, FLIPR Calcium 4 fluorescence
attribute_measured: IC50 (nM)

1. COc1cncc(C2=CCN(c3ncn(Cc4ccc(C(F)(F)F)s4)c(=O)n3)CC2)n1 :: 350

(I) Cc1ccc(C2=CCN(c3nc(C)n(Cc4ccc(OS(=O)(=O)C(F)(F)F)nc4)c(=O)n3)C[C@@H]2O)cc1F
(II) Cc1nc(N2CCN(c3ccc(F)cc3)CC2)nc(=O)n1CC12CC3CC(CC(C3)C1)C2
(III) Cc1nc(N2CC=C(c3ccc(F)cc3)[C@@H](O)C2)nc(=O)n1Cc1cnc(C(F)(F)F)s1
Query: Sort ascending by IC50. Hello, could you send the labels back in the order asked? Thank you.
Response: III, I, II
(III: 5.5 nM, I: 16 nM, II: 400 nM)
